# Tested on: Zea mays (ZEAMX)
# Test method notes: Post-emergence Test, Zea mays (ZEAMX)
# Format: in vivo
# Parameters: key: 5=81-100%, 4=61-80%, 3=41-60%, 2=21-40%, 1=0-20% damage
# Condition parameters: 250 g/Ha, evaluated after 13 days
Each item that follows carries a reported percentage damage caused to the plant, ZEAMX (five-point scale).

molecule=CCn1c(Cn2ncnc2OC)cc(=O)c(C(=O)O)c1-c1ccc(Cl)c(Cl)c1 result="1 (1=0-20%)"
molecule=CCn1c(Cn2ccc([N+](=O)[O-])n2)cc(=O)c(C(=O)O)c1-c1ccc(Cl)c(Cl)c1 result=0
molecule=CCOc1ccn(Cc2cc(=O)c(C(=O)O)c(-c3ccc(Cl)c(Cl)c3)n2CC)n1 result="4 (4=61-80%)"
molecule=CCCOc1ccn(Cc2cc(=O)c(C(=O)O)c(-c3ccc(Cl)c(Cl)c3)n2CC)n1 result="1 (1=0-20%)"
molecule=CCn1c(Cn2nccc2COC)cc(=O)c(C(=O)O)c1-c1ccc(Cl)c(Cl)c1 result=0
molecule=CCn1c(Cn2nc(C(F)(F)F)cc2OC)cc(=O)c(C(=O)O)c1-c1ccc(Cl)c(Cl)c1 result="1 (1=0-20%)"

Record request: percentage damage caused to the plant, ZEAMX (five-point scale) value, item `Cn1c(Cn2ccc(Cl)n2)cc(=O)c(C(=O)O)c1-c1ccc(Cl)c(Cl)c1`
1 (1=0-20%)

Record request: percentage damage caused to the plant, ZEAMX (five-point scale) value, item CCn1c(Cn2nc(C(F)(F)F)cc2C)cc(=O)c(C(=O)O)c1-c1ccc(Cl)c(Cl)c1 [Compound 13a]
0
